The reported measurements were obtained from paper PMC10397247.

This listing pairs binders with measured interaction score.
target or system: T1, 4H338-bN
T1 chain: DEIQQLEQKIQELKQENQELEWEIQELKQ
test description: two-hybrid library CCNG1;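 note: natural log of median RNA to DNA barcode read ratio; higher means stronger binding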

Consider the following illustrative entries.
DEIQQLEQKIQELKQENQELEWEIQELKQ [4H338-bN] = -1.01
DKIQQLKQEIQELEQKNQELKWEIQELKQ [4H2618-bN] = 0.959

Ask | Answer with reported interaction score of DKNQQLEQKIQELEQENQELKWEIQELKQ [4H3354-bN]
Reply | -0.511
